Measured pIC50, listed per entry for reference.
- EXPERIMENTAL_TARGET: butyrylcholinesterase (eqBChE, from equine serum) (Equus caballus, UniProt P81908)
- Construct: butyrylcholinesterase (eqBChE, from equine serum)
- Sequence (P81908 whole entry): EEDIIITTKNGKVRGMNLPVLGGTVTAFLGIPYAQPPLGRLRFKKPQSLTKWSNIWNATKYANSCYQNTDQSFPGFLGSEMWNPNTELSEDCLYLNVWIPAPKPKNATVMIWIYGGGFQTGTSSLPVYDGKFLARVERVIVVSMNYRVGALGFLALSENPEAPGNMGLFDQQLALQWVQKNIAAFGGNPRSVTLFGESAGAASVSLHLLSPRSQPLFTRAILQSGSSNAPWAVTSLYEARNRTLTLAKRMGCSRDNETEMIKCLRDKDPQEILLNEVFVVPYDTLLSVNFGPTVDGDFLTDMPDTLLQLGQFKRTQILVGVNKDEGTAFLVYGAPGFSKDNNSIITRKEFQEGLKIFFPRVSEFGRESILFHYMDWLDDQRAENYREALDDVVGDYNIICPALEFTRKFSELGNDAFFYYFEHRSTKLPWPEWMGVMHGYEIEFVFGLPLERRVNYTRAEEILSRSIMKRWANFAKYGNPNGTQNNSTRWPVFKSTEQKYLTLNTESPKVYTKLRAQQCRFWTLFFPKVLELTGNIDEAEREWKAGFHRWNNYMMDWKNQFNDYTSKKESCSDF
- PROTOCOL_NOTES: biochemical
- MEASUREMENT_CONDITIONS: mean ± SEM of three independent experiments, duplicate samples, read-out: IC50 ± SEM BChE
pIC50: −log10 of the molar value.
MEASURED_ATTRIBUTE: pIC50

1. O=C(/C=C/c1ccccc1)/C=C/c1cc[n+](Cc2ccc([N+](=O)[O-])cc2)cc1	5.41
2. COc1cc(/C=C/C(=O)/C=C/c2ccc[n+](Cc3ccc(F)cc3)c2)ccc1O	5.92
3. COc1cc(/C=C/C(=O)/C=C/c2cc[n+](Cc3ccc(Br)cc3)cc2)ccc1O	5.20
4. COc1cc(/C=C/C(=O)/C=C/c2ccc[n+](Cc3ccc(C)cc3)c2)ccc1O	5.60
5. Cc1ccc(C[n+]2cccc(/C=C/C(=O)/C=C/c3ccccc3)c2)cc1	5.60
6. Cc1ccc(C[n+]2ccc(/C=C/C(=O)/C=C/c3ccccc3)cc2)cc1	5.35
7. O=C(/C=C/c1ccccc1)/C=C/c1ccc[n+](Cc2ccc([N+](=O)[O-])cc2)c1	5.57
8. COc1cc(/C=C/C(=O)/C=C/c2ccc[n+](Cc3ccc([N+](=O)[O-])cc3)c2)ccc1O	5.01
9. COc1cc(/C=C/C(=O)/C=C/c2ccc[n+](Cc3ccccc3)c2)ccc1O	5.46
10. COc1cc(/C=C/C(=O)/C=C/c2ccc[n+](Cc3ccc(Br)cc3)c2)ccc1O	5.74
11. COc1cc(/C=C/C(=O)/C=C/c2cc[n+](Cc3ccc([N+](=O)[O-])cc3)cc2)ccc1O	5.85
12. COc1cc(/C=C/C(=O)/C=C/c2cc[n+](Cc3ccc(F)cc3)cc2)ccc1O	5.98
13. O=C(/C=C/c1ccccc1)/C=C/c1cc[n+](Cc2ccc(F)cc2)cc1	5.97

---

- EXPERIMENTAL_TARGET: acetylcholinesterase (eeAChE, from Electrophorus electricus) (Electrophorus electricus, UniProt O42275)
- Sequence (O42275 24-633): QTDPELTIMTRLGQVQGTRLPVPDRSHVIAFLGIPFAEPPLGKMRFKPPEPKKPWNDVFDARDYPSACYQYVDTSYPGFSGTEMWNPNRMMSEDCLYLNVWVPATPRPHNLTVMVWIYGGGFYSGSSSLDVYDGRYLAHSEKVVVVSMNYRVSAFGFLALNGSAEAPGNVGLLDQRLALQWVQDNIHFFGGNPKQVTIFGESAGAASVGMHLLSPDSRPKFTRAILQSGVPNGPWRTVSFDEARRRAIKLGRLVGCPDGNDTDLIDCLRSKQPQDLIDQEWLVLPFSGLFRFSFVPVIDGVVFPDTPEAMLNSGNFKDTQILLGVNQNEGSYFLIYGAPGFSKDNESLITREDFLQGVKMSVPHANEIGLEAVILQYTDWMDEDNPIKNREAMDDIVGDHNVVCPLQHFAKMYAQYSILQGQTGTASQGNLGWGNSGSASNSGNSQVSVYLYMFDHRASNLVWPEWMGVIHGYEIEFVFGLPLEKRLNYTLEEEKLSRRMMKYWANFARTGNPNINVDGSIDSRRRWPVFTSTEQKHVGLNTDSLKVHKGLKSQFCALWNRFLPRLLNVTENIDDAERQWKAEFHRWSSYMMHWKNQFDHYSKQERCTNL
pIC50: −log10 of the molar value.
Label FALSE if pIC50 falls below 7; label TRUE in every other case.

1) COc1cc(/C=C/C(=O)/C=C/c2cc[n+](Cc3ccccc3)cc2)ccc1O	TRUE
2) COc1cc(/C=C/C(=O)/C=C/c2cc[n+](Cc3ccc(Br)cc3)cc2)ccc1O	FALSE
3) O=C(/C=C/c1ccccc1)/C=C/c1cc[n+](Cc2ccc(Br)cc2)cc1	FALSE
4) COc1cc(/C=C/C(=O)/C=C/c2ccc[n+](Cc3ccc(F)cc3)c2)ccc1O	TRUE
5) COc1cc(/C=C/C(=O)/C=C/c2ccc[n+](Cc3ccccc3)c2)ccc1O	TRUE
6) COc1cc(/C=C/C(=O)/C=C/c2cc[n+](Cc3ccc(F)cc3)cc2)ccc1O	TRUE
7) COc1cc(/C=C/C(=O)/C=C/c2cc[n+](Cc3ccc(C)cc3)cc2)ccc1O	FALSE
8) O=C(/C=C/c1ccccc1)/C=C/c1cc[n+](Cc2ccccc2)cc1	TRUE
9) COc1cc(/C=C/C(=O)/C=C/c2cc[n+](Cc3ccc([N+](=O)[O-])cc3)cc2)ccc1O	FALSE

---

- EXPERIMENTAL_TARGET: acetylcholinesterase (eeAChE, from Electrophorus electricus) (Electrophorus electricus)
pIC50: −log10 of the molar value.
MEASURED_ATTRIBUTE: pIC50

1) Cc1ccc(C[n+]2ccc(/C=C/C(=O)/C=C/c3ccccc3)cc2)cc1	5.95
2) O=C(/C=C/c1ccccc1)/C=C/c1ccc[n+](Cc2ccc(Br)cc2)c1	5.94
3) COc1cc(/C=C/C(=O)/C=C/c2ccc[n+](Cc3ccc(C)cc3)c2)ccc1O	6.57
4) O=C(/C=C/c1ccccc1)/C=C/c1cc[n+](Cc2ccc([N+](=O)[O-])cc2)cc1	6.10
5) Cc1ccc(C[n+]2cccc(/C=C/C(=O)/C=C/c3ccccc3)c2)cc1	6.20
6) COc1cc(/C=C/C(=O)/C=C/c2ccc[n+](Cc3ccc(Br)cc3)c2)ccc1O	6.20
7) O=C(/C=C/c1ccccc1)/C=C/c1cc[n+](Cc2ccc(F)cc2)cc1	7.28
8) COc1cc(/C=C/C(=O)/C=C/c2ccc[n+](Cc3ccc([N+](=O)[O-])cc3)c2)ccc1O	6.18

---

- EXPERIMENTAL_TARGET: eeAChE (Electrophorus electricus, UniProt O42275)
- Sequence (O42275 24-633): as the sequence (O42275 24-633) above
- PROTOCOL_NOTES: biochemical
- Format: biochemical
- MEASUREMENT_CONDITIONS: from slopes of Lineweaver-Burk plots versus inhibitor concentration; substrate ATCh; read-out: Ki ± SEM eeAChE
The following molecules are shown together with reported Ki values.
MEASURED_ATTRIBUTE: Ki

1. COc1cc(/C=C/C(=O)/C=C/c2ccc[n+](Cc3ccc(F)cc3)c2)ccc1O	10 nM
2. O=C(/C=C/c1ccccc1)/C=C/c1cc[n+](Cc2ccc(F)cc2)cc1	56 nM
3. O=C(/C=C/c1ccccc1)/C=C/c1ccc[n+](Cc2ccccc2)c1	102 nM
4. O=C(/C=C/c1ccccc1)/C=C/c1cc[n+](Cc2ccccc2)cc1	39 nM
5. COc1cc(/C=C/C(=O)/C=C/c2cc[n+](Cc3ccc(F)cc3)cc2)ccc1O	6 nM
6. COc1cc(/C=C/C(=O)/C=C/c2cc[n+](Cc3ccccc3)cc2)ccc1O	6 nM
7. COc1cc(/C=C/C(=O)/C=C/c2ccc[n+](Cc3ccccc3)c2)ccc1O	16 nM
8. O=C(/C=C/c1ccccc1)/C=C/c1ccc[n+](Cc2ccc(F)cc2)c1	90 nM

---

Entries and their measured Selectivity Index (SI) (AChE) follow.
- EXPERIMENTAL_TARGET: UniProtKB O42275
- PROTOCOL_NOTES: biochemical
- MEASUREMENT_CONDITIONS: Selectivity ratio [IC50(BChE)/IC50(AChE)]
MEASURED_ATTRIBUTE: Selectivity Index (SI) (AChE)

1. O=C(/C=C/c1ccccc1)/C=C/c1ccc[n+](Cc2ccc([N+](=O)[O-])cc2)c1	2
2. COc1cc(/C=C/C(=O)/C=C/c2cc[n+](Cc3ccc(Br)cc3)cc2)ccc1O	10
3. O=C(/C=C/c1ccccc1)/C=C/c1ccc[n+](Cc2ccc(Br)cc2)c1	1
4. COc1cc(/C=C/C(=O)/C=C/c2cc[n+](Cc3ccc(C)cc3)cc2)ccc1O	3
5. O=C(/C=C/c1ccccc1)/C=C/c1cc[n+](Cc2ccc([N+](=O)[O-])cc2)cc1	5
6. O=C(/C=C/c1ccccc1)/C=C/c1ccc[n+](Cc2ccccc2)c1	14
7. COc1cc(/C=C/C(=O)/C=C/c2ccc[n+](Cc3ccc(F)cc3)c2)ccc1O	79
8. COc1cc(/C=C/C(=O)/C=C/c2cc[n+](Cc3ccccc3)cc2)ccc1O	55
9. O=C(/C=C/c1ccccc1)/C=C/c1cc[n+](Cc2ccccc2)cc1	19

---

- EXPERIMENTAL_TARGET: acetylcholinesterase (eeAChE, from Electrophorus electricus) (Electrophorus electricus, UniProt O42275)
- PROTOCOL_NOTES: biochemical
- MEASUREMENT_CONDITIONS: Selectivity ratio [IC50(BChE)/IC50(AChE)]
MEASURED_ATTRIBUTE: Selectivity Index (SI) (AChE)

1. COc1cc(/C=C/C(=O)/C=C/c2ccc[n+](Cc3ccc(C)cc3)c2)ccc1O	11
2. COc1cc(/C=C/C(=O)/C=C/c2ccc[n+](Cc3ccc(Br)cc3)c2)ccc1O	3
3. O=C(/C=C/c1ccccc1)/C=C/c1cc[n+](Cc2ccc(Br)cc2)cc1	3
4. COc1cc(/C=C/C(=O)/C=C/c2cc[n+](Cc3ccc(F)cc3)cc2)ccc1O	65
5. Cc1ccc(C[n+]2ccc(/C=C/C(=O)/C=C/c3ccccc3)cc2)cc1	4
6. Cc1ccc(C[n+]2cccc(/C=C/C(=O)/C=C/c3ccccc3)c2)cc1	4
7. O=C(/C=C/c1ccccc1)/C=C/c1ccc[n+](Cc2ccc(F)cc2)c1	7
8. O=C(/C=C/c1ccccc1)/C=C/c1cc[n+](Cc2ccc(F)cc2)cc1	21

---

- PROTOCOL_NOTES: ABTS radical cation decolorisation antioxidant assay
- MEASUREMENT_CONDITIONS: 0.0625 mg/mL
Threshold check on ABTS Inhibition %: at or above 10% gives label 1, strictly below gives label 0.

1. Cc1c(C)c2c(c(C)c1O)CC[C@@](C)(CCC[C@H](C)CCC[C@H](C)CCCC(C)C)O2 [α-tocopherol, reference compound]	label 1
2. O=C(/C=C/c1ccccc1)/C=C/c1ccc[n+](Cc2ccc(F)cc2)c1	label 0
3. COc1cc(/C=C/C(=O)/C=C/c2cc[n+](Cc3ccc(F)cc3)cc2)ccc1O	label 1
4. O=C(/C=C/c1ccccc1)/C=C/c1cc[n+](Cc2ccc(F)cc2)cc1	label 0
5. COc1cc(/C=C/C(=O)/C=C/c2cc[n+](Cc3ccccc3)cc2)ccc1O	label 1
6. O=C(/C=C/c1ccccc1)/C=C/c1ccc[n+](Cc2ccccc2)c1	label 0
7. COc1cc(/C=C/C(=O)/C=C/c2ccc[n+](Cc3ccc(F)cc3)c2)ccc1O	label 1
8. Cc1c(C)c2c(c(C)c1O)CCC(C)(C(=O)O)O2 (stereo not shown) [Trolox, reference compound]	label 1
9. O=C(/C=C/c1ccccc1)/C=C/c1cc[n+](Cc2ccccc2)cc1	label 0
10. COc1cc(/C=C/C(=O)/C=C/c2ccc[n+](Cc3ccccc3)c2)ccc1O	label 1
